Measured values drawn from patent US10428140B2 for this set.

SYSTEM TESTED: T1, human EphA8 (Homo sapiens, UniProt P29322)
T1 construct: a protein of the extracellular region of each human Eph receptor fused with the SEAP protein and the His tag; made in house; host or cells: Expi293F cells (culture supernatant)
T1 sequence (P29322 28-542 limits assumed): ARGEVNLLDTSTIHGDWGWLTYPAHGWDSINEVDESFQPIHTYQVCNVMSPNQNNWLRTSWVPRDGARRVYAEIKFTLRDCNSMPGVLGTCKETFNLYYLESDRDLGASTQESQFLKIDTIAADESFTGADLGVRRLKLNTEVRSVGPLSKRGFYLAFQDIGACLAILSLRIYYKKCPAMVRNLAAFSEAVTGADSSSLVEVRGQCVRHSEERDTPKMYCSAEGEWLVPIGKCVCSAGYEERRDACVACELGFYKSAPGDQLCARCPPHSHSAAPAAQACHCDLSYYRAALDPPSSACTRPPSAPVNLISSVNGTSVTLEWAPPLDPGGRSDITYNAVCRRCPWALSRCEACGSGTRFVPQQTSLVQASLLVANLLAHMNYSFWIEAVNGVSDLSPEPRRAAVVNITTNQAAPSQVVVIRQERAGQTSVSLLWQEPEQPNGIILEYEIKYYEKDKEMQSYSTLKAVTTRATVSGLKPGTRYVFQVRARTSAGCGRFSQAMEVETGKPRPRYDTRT
MEASUREMENT DESCRIPTION: Selectivity ELISA of humanized antibodies for human Eph receptor
Assay type: binding
CONDITION INFO: coated protein 1 nM
QUANTITY: hEphA8-SEAP-: absorbance at 450 nm, percentage with respect to hEphA4-SEAP-His as 100% (%)

# MOLECULE, EXPERIMENTAL RESULT
measured = [
    ("154 (antibody, V domains shown, synthetic humanized antibody heavy chain variable region sequence; synthetic humanized antibody light chain variable region sequence) VH: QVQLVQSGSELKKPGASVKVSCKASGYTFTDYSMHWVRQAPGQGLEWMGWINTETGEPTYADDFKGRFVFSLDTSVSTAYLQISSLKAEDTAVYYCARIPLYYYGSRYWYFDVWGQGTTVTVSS VL: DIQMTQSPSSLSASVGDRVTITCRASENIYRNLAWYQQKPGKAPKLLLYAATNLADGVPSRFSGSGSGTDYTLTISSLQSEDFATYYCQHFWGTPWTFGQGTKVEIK", 5.5),
    ("96 (antibody, V domains shown, constant regions without entry; synthetic humanized antibody light chain variable region sequence; synthetic humanized antibody heavy chain variable region sequence) VL: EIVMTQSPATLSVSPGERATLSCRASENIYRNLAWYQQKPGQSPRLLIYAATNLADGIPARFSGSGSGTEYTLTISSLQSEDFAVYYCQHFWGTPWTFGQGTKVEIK VH: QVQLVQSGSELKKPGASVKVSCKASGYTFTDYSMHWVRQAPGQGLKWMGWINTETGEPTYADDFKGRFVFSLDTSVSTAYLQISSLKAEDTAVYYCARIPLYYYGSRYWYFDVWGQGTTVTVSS", 5.4),
]
